Biological target: IRAK4 (Homo sapiens, UniProt Q9NWZ3)
Construct: Degradation of IRAK4 in OCI-LY10 was quantitatively measured using Meso Scale Discovery technology; endogenous in cells; host or cells: OCI-LY10
Sequence (Q9NWZ3 whole entry): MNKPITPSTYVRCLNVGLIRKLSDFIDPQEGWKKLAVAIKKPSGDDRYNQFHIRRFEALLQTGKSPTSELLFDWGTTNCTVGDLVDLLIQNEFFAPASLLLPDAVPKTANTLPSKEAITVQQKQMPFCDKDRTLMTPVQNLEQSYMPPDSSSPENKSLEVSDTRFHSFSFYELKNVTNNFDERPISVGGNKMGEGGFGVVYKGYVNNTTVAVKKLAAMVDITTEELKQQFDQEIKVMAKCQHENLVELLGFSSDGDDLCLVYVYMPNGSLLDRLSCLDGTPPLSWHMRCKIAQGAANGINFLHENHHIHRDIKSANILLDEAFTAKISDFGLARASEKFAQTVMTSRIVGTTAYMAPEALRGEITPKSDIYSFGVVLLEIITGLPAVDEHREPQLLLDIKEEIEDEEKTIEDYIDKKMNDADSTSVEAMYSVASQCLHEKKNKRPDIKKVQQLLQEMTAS
Assay: IRAK4 MSD Degradation in OCI-LY10
Type: cell-based
Conditions: OCI-LY10 cells, 4 hrs incubation, MSD; read-out: IRAK4 degradation in OCI-LY10 at 4 hrs: DC50
Reported DC50 by item:
readout-kind: DC50

[[record]]
compound = "Cn1c(=O)n(C2CCC(=O)NC2=O)c2cccc(N3CCN([C@H]4CC[C@@H](n5cc(NC(=O)c6cnn7ccc(N8C[C@H]9C[C@@H]8CO9)nc67)c(C(F)F)n5)CC4)CC3)c21 (stereo partly shown)"
observed_value = "> 200 nM"

[[record]]
compound = "Cn1c(=O)n(C2CCC(=O)NC2=O)c2cccc(C#CCN3CCN(C[C@H]4CC[C@H](n5cc(NC(=O)c6cnn7cc(N8CCCCC8)cnc67)c(C(F)F)n5)CC4)CC3)c21 (stereo partly shown)"
observed_value = "> 200 nM"

[[record]]
compound = "CN(CC1CCN(c2cccc3c2n(C)c(=O)n3C2CCC(=O)NC2=O)CC1)c1ccc(-n2cc(NC(=O)c3cnn4cccnc34)c(C(F)F)n2)cc1 (stereo not shown) [I-700]"
observed_value = "> 200 nM"

[[record]]
compound = "Cn1c(=O)n(C2CCC(=O)NC2=O)c2cccc(C[C@@H]3CN(Cc4ccc(-n5cc(NC(=O)c6cnn7ccc(N8C[C@H]9C[C@@H]8CO9)nc67)c(C(F)F)n5)cc4)CCO3)c21 (stereo partly shown)"
observed_value = "> 200 nM"

[[record]]
compound = "Cn1c(=O)n(C2CCC(=O)NC2=O)c2cccc([C@H]3C[C@@H](CN4CCN(C[C@H]5CC[C@H](n6cc(NC(=O)c7cnn8ccc(N9C[C@H]%10CC9CO%10)nc78)c(C(F)F)n6)CC5)CC4)C3)c21 (stereo partly shown)"
observed_value = "< 10 nM"

[[record]]
compound = "Cn1c(=O)n(C2CCC(=O)NC2=O)c2cccc(CCCN3CCN(C[C@H]4CC[C@H](n5cc(NC(=O)c6cnn7ccc(N8C[C@H]9C[C@@H]8CO9)nc67)c(C(F)F)n5)CC4)CC3)c21 (relative stereo)"
observed_value = "< 10 nM"

[[record]]
compound = "C[C@@H]1CN(C[C@H]2CC[C@H](n3cc(NC(=O)c4cnn5ccc(N6C[C@@H]7C[C@H]6CO7)nc45)c(C(F)F)n3)CC2)CC[C@H]1OCC#Cc1cccc2c1n(C)c(=O)n2C1CCC(=O)NC1=O (stereo partly shown)"
observed_value = "10 to 100 nM"

[[record]]
compound = "Cn1c(=O)n(C2CCC(=O)NC2=O)c2cccc(C#CCN3CCN(C[C@H]4CC[C@H](n5cc(NC(=O)c6cnn7ccc(N8C9COCC8C9)nc67)c(C(F)F)n5)CC4)CC3)c21 (stereo partly shown)"
observed_value = "> 200 nM"

[[record]]
compound = "Cn1c(=O)n(C2CCC(=O)NC2=O)c2cccc(C#CCN3CCN(C[C@H]4CC[C@H](n5cc(NC(=O)c6cnn7ccc(N8CCCCC8(C)C)nc67)c(C(F)F)n5)CC4)CC3)c21 (stereo partly shown)"
observed_value = "> 200 nM"

[[record]]
compound = "Cn1c(=O)n(C2CCC(=O)NC2=O)c2cccc(C#CCOC3CCN(C[C@H]4CC[C@H](n5cc(NC(=O)c6cnn7ccc(N8CCOC(F)(F)C8)nc67)c(C(F)F)n5)CC4)CC3)c21 (stereo partly shown)"
observed_value = "> 200 nM"


The measurements presented in this section are drawn from patent US12091411B2.
